Kindly state z-score for each of the entries shown.
test: A549 lung cancer cell viability effects, profiling panel, resazurin fluorescence, 24 h, PK04 Diversity Set (AID 1171); conditions: higher = more signal, called active from +8 up or from −8 down; further: test concentration not given here
// response body must contain only the number

**Q:** Requested field: z-score. Item: COCCOC(=O)N1C(=O)[C@@]2(c3cc(C#CC4=CCCCC4)ccc31)[C@H](c1ccc(OCCO)cc1)N1[C@H](c3ccccc3)[C@H](c3ccccc3)OC(=O)[C@H]1[C@@H]2C(=O)N1CCN(c2ncccn2)CC1
**A:** 0.468

**Q:** Looking for the measured z-score of CCOC(=O)C[C@H]1[C@H](OC(=O)Cc2ccc3c(c2)OCO3)[C@@H](NC(=O)CC(C)C)c2cc(OCCCO)ccc2N1C(=O)Cc1ccc(OC)cc1 , can you help?
**A:** -0.581

**Q:** What value of measured z-score is listed for COCCOC(=O)N1C(=O)[C@@]2(c3cc(C#CC4(O)CCCCCC4)ccc31)[C@H](c1ccc(O)cc1)N1[C@H](c3ccccc3)[C@H](c3ccccc3)OC(=O)[C@H]1[C@@H]2C(=O)NC[C@H](O)c1ccccc1 ?
**A:** 0.0025

**Q:** I have this compound here, O=C1C2C=CC(C(O)c3ccc(F)cc3)N(n3cnnc3)C2C(=O)N1Cc1ccccc1 (centres undefined) , and I need its recorded z-score.
**A:** -1.29

**Q:** Which z-score value is on record for CC[C@H]1C2=C3C(CC[C@H]4C(OCc5ccc(F)cc5C(F)(F)F)OC[C@](C)([C@@H]34)N(C(=O)OC(C)(C)C)C2)C(COC)C1COC (some centres undefined) ?
**A:** -0.515

**Q:** Name the recorded z-score for CN1C(=O)C2C=CC(C(O)c3ccc(F)cc3)N(Nc3ccccc3)C2C1=O (centres undefined) .
**A:** -0.369

**Q:** # input compound: O=C(NCCCCCNC(=O)/C(Cc1ccccc1)=N/O)OCc1ccccc1 ; wanted: its z-score
**A:** 0.766

**Q:** Value lookup for z-score; key = COCCOC(=O)N1C(=O)[C@@]2(c3cc(C#Cc4ccc(OC)cc4)ccc31)[C@H](c1ccccc1OCCO)N1[C@H](c3ccccc3)[C@H](c3ccccc3)OC(=O)[C@H]1[C@@H]2C(=O)N1CCCCCCC1
**A:** 0.375

**Q:** Look up z-score for this compound: C=C(COC)/C(=C/C[C@H](OC(=O)c1ccncc1)c1ccccc1OCCO)c1cnc2ccccc2c1
**A:** 2.05

**Q:** Fill in: z-score of C[C@H]1NC(=O)[C@@]23C(=O)N[C@@H](Cc4ccccc4)C2[C@H](C)[C@@]2(C)O[C@H]2C3/C=C/C/C=C\CNC(=O)[C@H](Cc2ccccc2)NC1=O (some centres undefined) is ___
**A:** 0.0548

**Q:** Given the compound C=CC1c2cc(O)c(OC)cc2CCN1Cc1cc2c(cc1Br)OCO2 (centres undefined) , what is its reported z-score?
**A:** -1.67

**Q:** May I ask what z-score has been recorded for CO[C@]12C=C(Br)[C@@H](C[C@@H]1c1cccc(C)c1)[C@@]1(CO1)C2=O ?
**A:** 0.862

**Q:** Quick one: z-score of C=C(C)c1cc2c(c(CCCCCC)n1)[Si](C(C)C)(C(C)C)OC2 ?
**A:** 0.867

**Q:** Requested read-out: z-score. Entry: CN(C)C(=O)[C@@]1(CCS(=O)(=O)c2ccccc2)N=C(c2ccc(OCCCO)cc2)O[C@H]1c1ccccc1
**A:** -0.124
